- System: MILI (PIWIL2) piRISC loaded with piRNA #1 (26 nt);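 also: 1 nM active piRISC with 0.1 nM target library at 33 °C single turnover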
- procedure details: pre-steady-state target cleavage rate (min^-1); guide: piRNA #1 5'p-UGAGGUAGUAGGUUGUAUAGUAUCCA; higher = faster piRNA-guided slicing of the target
- condition: auxiliary factor: 500 nM mouse GTSF1
Each entry below carries its reported pre-steady-state target cleavage rate.
Format: numeric value only, no unit, no commentary.

Here is how some sequences turned out for pre-steady-state target cleavage rate.
record sequence | pre-steady-state target cleavage rate
GGAGACCUAACUAUGCAACCUACUACCUCA | 0.12
GGAGACCUAUGAUAUCAACCUACUUACCUCA | 0.00342
GGAGACCUAUGAUAUCUAACCUACUACCUCA | 0.00471
GGAGACCAUUCUAUUCAACCUACUACCUCA | 0.102
GGAGACCUAUCUAUACAACCUACUACCUCU [g2:g20:cont:t1U] | 0.0927
GGAGACGAUACUAUACAACCUCCUACCUCA | 0.041
GGAGAGGAUACUUUACAACCUACAACCUCA | 0.11
GGAGAGGAUCUAUACAACCUACUACCUCA | 0.171
GGAGACCUUACUAUUCAUCCUACUACCUCA | 0.231
GGAGACCUAUGAUAACAACCUAUCUACCUCA | 0.00737

Given the sequence GGAGACCUUACUAUACAACCUUCUACCUCA , what is its reported pre-steady-state target cleavage rate? 0.00711

# iterate: GGAGACCUUACUAUACAACCUACUACCCCA 0.142

# iterate: GGAGUGGAUAGUAUACAACCUAGUACCUCA 0.0556

# iterate: GGAGACGAUAUAUACAACCUACUACCUCA 0.154

# iterate: GGAGACGAUACUAUAGAACCUACUACCACA 0.0976

# iterate: GGAGACCUAUGUAUUCAACCUACAACCUCA 0.0352

# iterate: GGAGUCGAUACUAUACAACCUUCUACCUCA 0.00775

# iterate: GGAGACCUAUGAACUACAACCUACUACCUCA 0.00389

----------
- System: MILI (PIWIL2) piRISC loaded with L1MC piRNA (26 nt);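 also: 1 nM active piRISC with 0.1 nM target library at 33 °C single turnover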
- procedure details: pre-steady-state target cleavage rate (min^-1); guide: L1MC piRNA 5'p-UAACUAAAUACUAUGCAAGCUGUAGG; MIWI and MILI are mouse PIWI proteins and EfPiwi is from a freshwater sponge; tags in brackets are library labels; higher = faster piRNA-guided slicing of the target
- condition: auxiliary factor: 500 nM mouse GTSF1
measured parameter: pre-steady-state target cleavage rate

Here is how some sequences turned out for pre-steady-state target cleavage rate.
record sequence | measured parameter | observed measurement
UCCUGGAUGUCGAACGUAUCUAUUUAGGUA | pre-steady-state target cleavage rate | < 0.0001
UCCUGGAUCAGCUUGCAUAGUAUUUAGCUUA | pre-steady-state target cleavage rate | 0.149
UCCUGGAUGUCGUUGCAUAGUAUUUAGAUUA | pre-steady-state target cleavage rate | 0.0205
UCCUGCUACAGCUUGCAUAGUAUUUAGUCA | pre-steady-state target cleavage rate | 0.202
UCCUGGAACAGCUUGCAUAGUUUUAAGUUA | pre-steady-state target cleavage rate | 0.0465

Given the sequence UCCUCCUACAGCUUGCAUAUAUUUAGUUA , what is its reported pre-steady-state target cleavage rate? 0.0398

# iterate: UCCUGGAUCAGCUUGCAUAGUUUUUAGAUA 0.0159

# iterate: UCCUGCUACUGCUUGCAUACUAUUUAGUUA 0.0731

# iterate: UCCUGGAUCAGCUUGCAUUGUAUUAAGUUA 0.142

# iterate: UCCUGGUACAGCUUGCAUAGUAUUUGAGUUA 0.178

# iterate: UCCUGGAUGUCGUUGCAUCGUAUUUAGUUA 0.0281

# iterate: UCCUCCUUCAGCAUGCAUAGUAUUUAGUUA 0.265

# iterate: UCCUGGAUCAGCAUGCAUAGUAUUUUGUUA 0.16
